Sourced from patent US10981926B2

Biological target: wild-type Androgen Receptor (AR-wt) (Homo sapiens (Human), UniProt P10275)
Sequence (P10275 whole entry): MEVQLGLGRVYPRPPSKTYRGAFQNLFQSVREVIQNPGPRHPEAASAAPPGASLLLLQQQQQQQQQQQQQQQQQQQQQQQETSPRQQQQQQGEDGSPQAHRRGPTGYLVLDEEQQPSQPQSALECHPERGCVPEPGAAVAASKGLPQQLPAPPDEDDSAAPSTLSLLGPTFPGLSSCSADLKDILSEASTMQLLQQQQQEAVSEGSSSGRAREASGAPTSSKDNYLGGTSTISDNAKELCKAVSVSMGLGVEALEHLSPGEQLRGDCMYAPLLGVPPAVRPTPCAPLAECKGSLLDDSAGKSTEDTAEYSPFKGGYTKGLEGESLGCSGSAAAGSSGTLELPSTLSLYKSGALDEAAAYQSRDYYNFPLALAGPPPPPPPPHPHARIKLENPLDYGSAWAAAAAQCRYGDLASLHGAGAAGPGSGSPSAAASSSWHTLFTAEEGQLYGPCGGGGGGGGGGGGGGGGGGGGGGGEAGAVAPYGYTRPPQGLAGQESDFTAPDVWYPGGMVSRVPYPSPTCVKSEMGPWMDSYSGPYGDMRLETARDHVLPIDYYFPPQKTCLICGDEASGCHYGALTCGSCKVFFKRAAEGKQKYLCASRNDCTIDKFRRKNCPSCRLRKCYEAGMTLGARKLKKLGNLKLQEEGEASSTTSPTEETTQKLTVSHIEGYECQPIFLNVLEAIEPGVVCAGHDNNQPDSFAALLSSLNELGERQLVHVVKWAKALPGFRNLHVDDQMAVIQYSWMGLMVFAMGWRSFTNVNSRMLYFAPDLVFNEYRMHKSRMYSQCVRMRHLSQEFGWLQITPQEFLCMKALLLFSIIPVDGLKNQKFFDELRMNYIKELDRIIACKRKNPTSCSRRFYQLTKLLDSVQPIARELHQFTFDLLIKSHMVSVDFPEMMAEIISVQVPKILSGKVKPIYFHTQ
Assay: LNCaP-AR-wt AG reporter assay (agonist mode)
Type: cell-based
Conditions: maximum % stimulation (agonist response) over the tested concentration range; read-out: LNCaP-AR-wt AG MAX % Stim
Assay Metric: Emax (%)

Compound: COC(=O)C1CCC(N2C(=S)N(c3cnc(C#N)c(C(F)(F)F)c3)C(=O)C23CCC3)CC1 (stereo not shown)
Value Units: %
Reading: 0.3

a. CN1CC[C@H](Oc2ccc(N3C(=S)N(c4cnc(C#N)c(C(F)(F)F)c4)C(=O)C34CCC4)cc2)[C@H](F)C1 (racemic)
b. CC(=O)N1CCC(n2ncc3cc(N4C(=S)N(c5cnc(C#N)c(C(F)(F)F)c5)C(=O)C45CCC5)ccc32)CC1
c. COCCN1CCC(Oc2ccc(N3C(=S)N(c4cnc(C#N)c(Cl)c4)C(=O)C34CCC4)cn2)CC1
**Q:** Order each entry by recorded Emax, climbing from the minimum. A complete answer lists every label in the requested sequence.
**A:** b, a, c

---

Biological target: wild-type Androgen Receptor (AR-wt) (Homo sapiens (Human), UniProt P10275)
Assay: LNCaP-AR-wt ANT reporter assay (antagonist mode)
Assay type: cell-based
Conditions: antagonist mode; pIC50 = −Log10(IC50 in Molar); read-out: LNCaP-AR-wt ANT pIC50 (converted)
Assay Metric: IC50 (µM)

Solved cases (4 shown):
Molecule: N#Cc1ncc(N2C(=O)C3(CCC3)N(c3ccc(C(=O)NC[C@@H]4CCCNC4)c(F)c3)C2=S)cc1C(F)(F)F
Value Units: µM
IC50: 1.1
--
Molecule: CN(C(=O)OC(C)(C)C)C1(COc2ccc(N3C(=S)N(c4cnc(C#N)c(C(F)(F)F)c4)C(=O)C34CCC4)cc2)COC1
Value Units: µM
IC50: 0.589
--
Molecule: N#Cc1ncc(N2C(=O)C3(CCC3)N(c3ccc(OC4CC5CC4CN5)nc3)C2=S)cc1C(F)(F)F (stereo not drawn)
Value Units: µM
IC50: 0.324
--
Molecule: CCOC(=O)N1CCN(Cc2ccc(N3C(=S)N(c4cnc(C#N)c(C(F)(F)F)c4)C(=O)C34CCC4)cc2)CC1
Value Units: µM
IC50: 0.0724

I. N#Cc1ncc(N2C(=O)C3(CCC3)N(c3ccc(CN4CCNC(=O)C4)cc3)C2=S)cc1C(F)(F)F
II. CN1CCC(Oc2ccc(N3C(=S)N(c4cnc(C#N)c(C(F)(F)F)c4)C(=O)C34CCC4)cc2)C(F)(F)C1 (racemic)
**Q:** Hi there! Just curious which has the higher IC50 between I and II . Please reply using the label of the selected record.
**A:** I
(I: 0.209 µM, II: 0.049 µM)

---

Target: wild-type Androgen Receptor (AR-wt) (Homo sapiens (Human), UniProt P10275)
Experiment: LNCaP-AR-wt ANT reporter assay (antagonist mode)
Format: cell-based
Conditions: maximum % inhibition of R1881 control response over the tested concentration range; read-out: LNCaP-AR-wt ANT MAX % Inh
Assay Metric: Emax (%)

Compound: CNC(=O)N1CCC(CNC(=O)c2ccc(N3C(=S)N(c4cnc(C#N)c(C(F)(F)F)c4)C(=O)C34CCC4)cc2)CC1
Value Units: %
Emax: 101
//
Compound: CN1CCC(Oc2ccc(N3C(=S)N(c4cnc(C#N)c(Cl)c4)C(=O)C34CCC4)cc2)CC1
Value Units: %
Emax: 101
//
Compound: N#CCN1CCC(Oc2ccc(N3C(=S)N(c4cnc(C#N)c(C(F)(F)F)c4)C(=O)C34CCC4)cn2)CC1
Value Units: %
Emax: 99.2
//
Compound: CN1CCC(Oc2ccc(N3C(=S)N(c4cnc(C#N)c(Cl)c4)C(=O)C34CCC4)cn2)CC1
Value Units: %
Emax: 101
//
Compound: CN1CC[C@@H](Oc2ccc(N3C(=S)N(c4cnc(C#N)c(C(F)(F)F)c4)C(=O)C34CCC4)cc2)C[C@H]1C(F)(F)F (racemic)
Value Units: %
Emax: 100
//
Compound: C#CCN1CC(Oc2ccc(N3C(=S)N(c4cnc(C#N)c(C(F)(F)F)c4)C(=O)C34CCC4)cc2)C1
Value Units: %
Emax: 102
//
Compound: COCCn1ncc2cc(N3C(=S)N(c4cnc(C#N)c(C(F)(F)F)c4)C(=O)C34CCC4)ccc21
Value Units: %
Emax: 101
//
Compound: COCCN1CCC(Oc2ccc(N3C(=S)N(c4cnc(C#N)c(C(F)(F)F)c4)C(=O)C34CCC4)cc2)CC1
Value Units: %
Emax: 101

---

Molecular target: wild-type Androgen Receptor (AR-wt) (Homo sapiens (Human), UniProt P10275)
Test: LNCaP-AR-wt ANT reporter assay (antagonist mode)
Assay type: cell-based
Conditions: antagonist mode; pIC50 = −Log10(IC50 in Molar); read-out: LNCaP-AR-wt ANT pIC50 (converted)
Assay Metric: IC50 (µM)

In the examples that follow, each entry is paired with its recorded IC50.
Molecule: N#Cc1ncc(N2C(=O)C3(CCC3)N(c3ccc(CN4CCOCC4)cc3)C2=S)cc1C(F)(F)F [Cpd 217]
Reading: 0.372
--
Molecule: N#Cc1ncc(N2C(=O)C3(CCC3)N(c3ccc(OC4CCN(CCCF)CC4)cc3)C2=S)cc1C(F)(F)F [Cpd 14]
Reading: 0.562
--
Molecule: COc1cc(N2C(=O)C3(CCC3)N(c3ccc4c(cnn4CCO)c3)C2=S)cnc1C#N [Cpd 167]
Reading: 0.832
--
Molecule: CN1CCC(Oc2ccc(N3C(=S)N(c4cnc(C#N)c(Cl)c4)C(=O)C34CCC4)cc2)CC1 [Cpd 24]
Reading: 0.17
--
Molecule: COCCn1cc2ccc(N3C(=S)N(c4cnc(C#N)c(C(F)(F)F)c4)C(=O)C34CCC4)cc2n1 [Cpd 179]
Reading: 1.23

A. CC(C)(C)OC(=O)N1CCc2cc(N3C(=S)N(c4cnc(C#N)c(C(F)(F)F)c4)C(=O)C34CCC4)ccc2C1 [Cpd 118]
B. COc1cc(N2C(=O)C3(CCC3)N(c3ccc4c(cnn4C4CCNCC4)c3)C2=S)cnc1C#N [Cpd 211]
**Q:** Please compare: A and B . Report which one has the smaller IC50 value. Please respond with the label that marks your chosen entry.
**A:** A
(A: 0.49 µM, B: 1.05 µM)

---

Molecular target: wild-type Androgen Receptor (AR-wt) (Homo sapiens (Human))
Assay: LNCaP-AR-wt ANT reporter assay (antagonist mode)
Format: cell-based
Details: maximum % inhibition of R1881 control response over the tested concentration range; read-out: LNCaP-AR-wt ANT MAX % Inh
Assay Metric: Emax (%)

Compound: N#Cc1ncc(N2C(=O)C3(CCC3)N(c3ccc4[nH]ncc4c3)C2=S)cc1Cl [Cpd 155]
Value Units: %
Reading: 97.4

Compound: N#Cc1ncc(N2C(=O)C3(CCC3)N(c3ccc4c(cnn4CCO)c3)C2=S)cc1Cl [Cpd 163]
Value Units: %
Reading: 100

Compound: N#CCN1CCC(Oc2ccc(N3C(=S)N(c4cnc(C#N)c(C(F)(F)F)c4)C(=O)C34CCC4)cc2)CC1 [Cpd 39]
Value Units: %
Reading: 100

Compound: N#Cc1ncc(N2C(=O)C3(CCC3)N(c3ccc4c(cnn4CC4CCNCC4)c3)C2=S)cc1C(F)(F)F [Cpd 128]
Value Units: %
Reading: 101

Compound: COc1cc(N2C(=O)C3(CCC3)N(c3ccc(OC4CCNCC4)nc3)C2=S)cnc1C#N [Cpd 75]
Value Units: %
Reading: 102

Compound: CN1CC(CCOc2ccc(N3C(=S)N(c4cnc(C#N)c(C(F)(F)F)c4)C(=O)C34CCC4)cc2)C1 [Cpd 142]
Value Units: %
Reading: 101

Compound: Cl.N#Cc1ncc(N2C(=O)C3(CCC3)N(c3cnc(OC4CCNCC4)nc3)C2=S)cc1C(F)(F)F [Cpd 141]
Value Units: %
Reading: 84.9

Compound: N#Cc1ncc(N2C(=O)C3(CCC3)N(c3ccc(O[C@H]4CCNC[C@H]4F)cc3)C2=S)cc1C(F)(F)F (racemic) [Cpd 96]
Value Units: %
Reading: 100

Compound: N#Cc1ncc(N2C(=O)C3(CCC3)N(c3ccc(OC4CC5CC4CN5)cc3)C2=S)cc1C(F)(F)F (centres unmarked) [Cpd 150]
Value Units: %
Reading: 102

Compound: N#Cc1ncc(N2C(=O)C3(CCC3)N(c3ccc(OC4CCNC5(CCC5)C4)cc3)C2=S)cc1C(F)(F)F (racemic) [Cpd 151]
Value Units: %
Reading: 106

Compound: CC(C)(C)OC(=O)N1C2CCC1CC(c1ccc(N3C(=S)N(c4cnc(C#N)c(C(F)(F)F)c4)C(=O)C34CCC4)cc1)C2 (centres unmarked) [Cpd 113]
Value Units: %
Reading: 89

Compound: N#Cc1ncc(N2C(=O)C3(CCC3)N(c3ccc(OC4CCCNCC4)cc3)C2=S)cc1C(F)(F)F (centres unmarked) [Cpd 17]
Value Units: %
Reading: 98.5

Compound: COCCn1cc2cc(N3C(=S)N(c4cnc(C#N)c(OC)c4)C(=O)C34CCC4)ccc2n1 [Cpd 175]
Value Units: %
Reading: 101

Compound: N#Cc1ncc(N2C(=O)C3(CCC3)N(c3ccc(OC4CCN(CCF)CC4)nc3)C2=S)cc1C(F)(F)F [Cpd 67]
Value Units: %
Reading: 99.6
